system: PANC-1 cell line; assay: MTT assay on PANC-1 cell line; format: cell-based; details: Homo sapiens, after 24 hours of treatment, pancreas ductal adenocarcinoma cell line

{"columns": ["compound", "IC50 (µM)"],
 "data": [
  ["COc1cc([C@@H]2c3cc4c(cc3[C@@H](O[C@@H]3O[C@@H]5CO[C@@H](C)O[C@H]5[C@H](O)[C@H]3O)[C@H]3COC(=O)[C@H]23)OCO4)cc(OC)c1O [Etoposide, reference compound]", 32.2]
]}
